These data points were gathered from patent US20170037028A1.

- TESTED TARGET: GLUT1 (Homo sapiens)
- METHOD NOTES: Indirect measurement of GLUT1 activity by quantification of intracellular ATP levels (glucose induced ATP increase)
- Format: cell-based
- Parameters: endogenous in cells; host or cells: DLD1 or CHO-K1
- CONDITION LABEL: read-out: IC50 regarding glucose induced ATP increase (GLUT1 inhibition)
- From the text: Indirect Measurement of GLUT1 and GLUT2 Activity by Quantification of Intracellular ATP Levels It is well known that a combination of small-molecule inhibitors of mitochondrial electron transport chain and glucose catabolism synergistically suppress ATP production and impair cellular viability (Ulanovskaya et al., 2008, 2011; Liu, et al. 2001). We therefore used DLD1 or CHO-K1 cells in combination with an oxidative phosphorylation inhibitor to identify GLUT1 and GLUT2 inhibitors. […]
pIC50: −log10 of the molar value.
Mark Not satisfied for pIC50 values under 8, and Satisfied for everything at or above.

[in] Quick check, pIC50 >= 8? CNC(=O)c1nn(Cc2ccc(F)cc2)c(C)c1NC(=O)c1cc(C(N)=O)nc2ccccc12 [Example 1231]
[out] Not satisfied

[in] Reported pIC50 reaches at least 8 for Cc1nn(Cc2ccc(C(=O)Nc3ccccn3)cc2)c(C)c1NC(=O)c1cc(C(F)(F)F)nc2ccc(Br)cc12 [Example 1064] ?
[out] Not satisfied

[in] Record Cc1c(NC(=O)c2cc(C(N)=O)nc3cc(F)c(Cl)cc23)c(C(F)(F)F)nn1Cc1ccc(C#N)cc1F [Example 303] ; criterion: pIC50 no lower than 8. Met?
[out] Satisfied

More entries:
[in] hey, is pIC50 for this one >= 8? Cc1nn(Cc2cnn(C)c2C)c(C)c1NC(=O)c1cc(C(F)(F)F)nc2ccc(Br)cc12 [Example 1342]
[out] Not satisfied

[in] Quick check, pIC50 >= 8? Cc1nn(Cc2cnn(C)c2C)c(C)c1NC(=O)c1cc(C(N)=O)nc2ccccc12 [Example 1567]
[out] Not satisfied

[in] Tell me whether pIC50 is at least 8 here: Cc1nn(CC2CCCCC2)c(C)c1NC(=O)c1cc(C(F)(F)F)nc2cc(F)c(F)cc12 [Example 195]
[out] Not satisfied

[in] Evaluate CC(=O)c1ccc(Cn2nc(C(F)(F)F)c(NC(=O)c3cc(C(N)=O)nc4cc(F)ccc34)c2C)cc1 [Example 1605] : pIC50 at minimum 8?
[out] Satisfied

[in] Determine whether measured pIC50 meets or exceeds 8 for COc1ccccc1Cn1nc(C)c(NC(=O)c2cc(C(F)(F)F)nc3cc(F)c(F)cc23)c1C [Example 1270]
[out] Not satisfied

[in] Threshold query (pIC50 >= 8) on COc1cc2c(C(=O)Nc3c(C)nn(Cc4ccc(C#N)cc4)c3C)cc(C(N)=O)nc2cc1F [Example 254]
[out] Satisfied

[in] Is pIC50 at least 8? Consider Cc1nn(CC2CCN(S(=O)(=O)C(C)C)CC2)c(C)c1NC(=O)c1cc(C(N)=O)nc2ccccc12 [Example 1517]
[out] Not satisfied

###

- TESTED TARGET: GLUT1 (Homo sapiens, UniProt P11166)
- Sequence (P11166 whole entry, species assumed): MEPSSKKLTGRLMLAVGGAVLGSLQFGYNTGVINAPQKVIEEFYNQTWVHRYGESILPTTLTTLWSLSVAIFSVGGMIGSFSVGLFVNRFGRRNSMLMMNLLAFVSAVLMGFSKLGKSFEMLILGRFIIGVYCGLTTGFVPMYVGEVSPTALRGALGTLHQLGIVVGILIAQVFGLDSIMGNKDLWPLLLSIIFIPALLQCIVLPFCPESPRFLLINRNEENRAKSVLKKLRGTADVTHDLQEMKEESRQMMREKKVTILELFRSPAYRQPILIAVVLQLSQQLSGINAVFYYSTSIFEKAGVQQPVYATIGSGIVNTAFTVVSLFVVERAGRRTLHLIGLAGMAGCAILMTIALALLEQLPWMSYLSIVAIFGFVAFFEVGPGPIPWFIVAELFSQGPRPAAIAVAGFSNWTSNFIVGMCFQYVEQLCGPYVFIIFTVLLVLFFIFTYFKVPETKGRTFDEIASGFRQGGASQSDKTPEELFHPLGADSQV
- METHOD NOTES: Indirect measurement of GLUT1 activity by quantification of intracellular ATP levels (glucose induced ATP increase)
- Assay type: cell-based
- Design: endogenous in cells; host or cells: DLD1 or CHO-K1
- CONDITION LABEL: read-out: IC50 regarding glucose induced ATP increase (GLUT1 inhibition)
Answer each item with its documented IC50.
Report field: quantity (unit follows the number).

[in] I have this compound here, CSc1cc(C(=O)Nc2c(C(F)(F)F)nn(Cc3ccc(C#N)cc3)c2C)c2ccccc2n1 , and I need its recorded IC50.
[out] 26.1 nM

Can you give me IC50 for all of these, one by one?
1. Cc1nn(Cc2ccc(C(=O)N[C@@H](C)CO)cc2)c(C)c1NC(=O)c1cc(C(F)(F)F)nc2ccc(Br)cc12
2. Cc1c(NC(=O)c2cc(C(N)=O)nc3cc(F)ccc23)c(C(F)(F)F)nn1Cc1ccccc1C#N

[out]
1. 42.8 nM
2. 2.5 nM

[in] Query (compound): Cc1nn(Cc2ccc(C#N)cc2F)c(C)c1NC(=O)c1cc(C(N)=O)nc2cccc(F)c12 ; field requested: IC50
[out] 0.5 nM
